system: Fusarium roseum; conditions: 5 μmol/ml, compound in methanol, more than 10 days at 20° C.
Exercise: for every item that follows, state its recorded Inhibition of the growth of the Fusarium roseum fungi.
Answers are plain numbers, in %.

[[record]]
compound = "CCCCCCCCCCCCNCC(O)C(O)C(O)C(C)O (stereo not drawn)"
reported_value = 100


Please report Inhibition of the growth of the Fusarium roseum fungi for every entry that follows.
1. CC1OC(NCCCCCNC2OC(C)[C@H](O)C(O)C2O)C(O)C(O)[C@H]1O (stereo partly drawn)
2. CCCCCCCCCCCCNCC(O)C(O)C(O)C(O)CO (stereo not drawn) [compound IIIb]
3. CCCCNC1OC(C)[C@H](O)C(O)C1O (stereo partly drawn)
4. CCCCCNC1OC(C)[C@H](O)C(O)C1O (stereo partly drawn) [compound Ic]
5. CCCCCCCCCCCCNCC(O)C(O)C(O)C(O)CO (stereo not drawn) [compound IIIc]
6. CCCCCCCCCCCCNC1OC(CO)C(O)C(O)C1O (stereo not drawn)

1. 90
2. 100
3. 0
4. 99
5. 100
6. 96

Please report Inhibition of the growth of the Fusarium roseum fungi for every entry that follows.
1. CC1OC(NCCCCCCCCCCCCN)C(O)C(O)C1O (stereo not drawn)
2. CCCCCNC1OC(C)[C@H](O)C(O)C1O (stereo partly drawn) [compound Ie]

1. 93
2. 100

src = patent US9969762B2
